Where do the numbers come from? From ChEMBL document CHEMBL5058577.

Test system: Fibroblast
Assay: Multiplex assay against human fibroblast
Assay type: toxicity, cell-based
Settings: 12 h, 1 µM, compound concentration 1 uM, replicate 1
Sorting guide: entries reporting Population Healthy Nuclei (%) beneath 60% go in the 1 (yes) pile, the rest go in the 0 (no) pile.

Exam item: Bench note: check whether `C[C@H](NC(=O)c1c(C(F)F)nn(C)c1Oc1cccc(C(F)(F)F)c1)c1ccc(C(=O)O)cc1` shows Population Healthy Nuclei (%) below 60%
Marked response: 1 (yes)

Exam item: Thanks! And CSc1ccccc1N1CCN(CCCCCC(=O)NC2CCCc3ccccc32)CC1.Cl (stereo not drawn) ?
Marked response: 1 (yes)

Exam item: Here is the next molecule: `O=C(O)c1cc2ccccc2c(Cc2c(O)c(C(=O)O)cc3ccccc23)c1O`
Marked response: 0 (no)

Exam item: Further, for `CCCn1c(=O)c2[nH]c(C3CCCC3)nc2n(CCC)c1=O` ?
Marked response: 0 (no)

Exam item: Now the molecule `CCNC1(C(N)=O)CCN(c2ncnc3c2nc(-c2ccccc2Cl)n3-c2ccc(Cl)cc2)CC1`
Marked response: 0 (no)

Exam item: # repeat for `C[C@H]1[C@H]2CC[C@H]3[C@@H]4CC=C5C[C@@H](N(C)C)CC[C@]5(C)[C@H]4CC[C@]23CN1C`
Marked response: 0 (no)

Exam item: Try this molecule next: `Cc1ccc(/C(=C\CN2CCCC2)c2ccccn2)cc1`
Marked response: 0 (no)

Exam item: Now this one: `CCOc1c2c(c(OCC)c3ncccc13)CN(c1ccc(CS(=O)(=O)NC(=O)Cc3ccccc3OC)cc1C)C2=O`
Marked response: 0 (no)
